assay: Human pharmacokinetics, heart failure subjects, 7.5-hour continuous ascending dose IV infusion; details: in vivo, infusion rate 1/3/9 ng/kg/min, mean, N = 2
experimental_readout: AUC(0-inf)
Give the number first and the unit second.

Look up AUC(0-inf): H-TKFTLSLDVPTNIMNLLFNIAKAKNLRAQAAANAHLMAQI-NH2 [SEQ ID NO: 1]
6.72 ng·h/mL

###

Assay: in vivo
Conditions: mongrel, dog, iv, 7.3 ng/kg/min, [SEQ ID NO: 1] plasma concentration
Description: A sandwich immunoassay was developed using an affinity purified goat polyclonal antibody, specific to h-SCP that was pre-coated onto a microplate with integrated electrodes. h-SCP molecules present in the sample will bind to the capture polyclonal antibody coated on the plate. […] This conjugated antibody will bind to the h-SCP molecules captured on the microplate and the quantity of analyte was determined by electrochemiluminescence. […]
experimental_readout: level at 1 h
Form field: result (number plus unit)

Can you look up the measured level at 1 h of H-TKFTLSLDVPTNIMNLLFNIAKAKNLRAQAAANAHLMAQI-NH2 [SEQ ID NO: 1] for me?
0.279 ng/mL
